Measured Emax of individual entries
tgt: Cannabinoid receptor 1 (Homo sapiens, UniProt P21554)
Sequence (P21554 whole entry): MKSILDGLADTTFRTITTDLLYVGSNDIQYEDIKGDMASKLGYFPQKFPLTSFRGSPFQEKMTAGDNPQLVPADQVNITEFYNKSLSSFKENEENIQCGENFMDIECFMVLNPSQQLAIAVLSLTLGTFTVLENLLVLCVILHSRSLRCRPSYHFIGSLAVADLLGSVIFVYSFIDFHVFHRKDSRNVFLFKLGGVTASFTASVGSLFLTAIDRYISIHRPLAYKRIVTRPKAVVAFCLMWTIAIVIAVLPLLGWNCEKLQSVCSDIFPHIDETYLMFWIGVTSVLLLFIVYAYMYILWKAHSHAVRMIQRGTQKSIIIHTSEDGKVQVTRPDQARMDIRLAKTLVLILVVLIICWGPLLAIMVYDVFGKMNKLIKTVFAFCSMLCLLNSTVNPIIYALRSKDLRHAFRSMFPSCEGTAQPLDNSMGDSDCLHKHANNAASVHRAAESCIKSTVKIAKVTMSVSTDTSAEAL
assay_procedure: Agonist activity at human CB1 receptor stably transfected in AtT20 cells assessed as maximal efficacy at 30 uM incubated for 60 mins by FLIPR membrane potential assay relative to control
Format: functional, cell-based
condition_summary: filed as agonist
Record the value in %, omitting the unit from your answer.

>  <smiles_str>
COC(=O)[C@H](C)NC(=O)c1cn(CCCCCF)c2ccccc12

>  <measurement_name>
Emax

>  <quantitative_result>
108

$$$$
>  <smiles_str>
COC(=O)[C@@H](NC(=O)c1cn(CCCCCF)c2ccccc12)[C@@H](C)O

>  <measurement_name>
Emax

>  <quantitative_result>
134

$$$$
>  <smiles_str>
COC(=O)[C@H](CC(C)C)NC(=O)c1cn(CCCCCF)c2ccccc12

>  <measurement_name>
Emax

>  <quantitative_result>
136

$$$$
>  <smiles_str>
COC(=O)[C@H](NC(=O)c1cn(CCCCCF)c2ccccc12)C(C)C

>  <measurement_name>
Emax

>  <quantitative_result>
130

$$$$
>  <smiles_str>
COC(=O)[C@@H](CCSC)NC(=O)c1cn(CCCCCF)c2ccccc12

>  <measurement_name>
Emax

>  <quantitative_result>
139

$$$$

Value of Emax reported for the compound `CC[C@@H](C)[C@@H](NC(=O)c1cn(CCCCCF)c2ccccc12)C(=O)OC` is 121

Value of Emax reported for the compound `COC(=O)[C@H](Cc1ccccc1)NC(=O)c1cn(CCCCCF)c2ccccc12` is 108

Value of Emax reported for the compound `COC(=O)[C@@H](C)NC(=O)c1cn(CCCCCF)c2ccccc12` is 71

Value of Emax reported for the compound `COC(=O)[C@@H](CCC(N)=O)NC(=O)c1cn(CCCCCF)c2ccccc12` is 116

Value of Emax reported for the compound `COC(=O)[C@@H]1CCCN1C(=O)c1cn(CCCCCF)c2ccccc12` is 106

====

Measured Emax of individual entries
tgt: Cannabinoid receptor 2 (Homo sapiens)
assay_procedure: Agonist activity at human CB2 receptor stably transfected in AtT20 cells assessed as maximal efficacy at 30 uM incubated for 60 mins by FLIPR membrane potential assay relative to control
Format: functional, cell-based
condition_summary: filed as agonist
Record the value in %, omitting the unit from your answer.

>  <smiles_str>
COC(=O)[C@@H](NC(=O)c1cn(CCCCCF)c2ccccc12)[C@@H](C)O

>  <Emax / %>
60

$$$$
>  <smiles_str>
COC(=O)[C@@H](CCC(N)=O)NC(=O)c1cn(CCCCCF)c2ccccc12

>  <Emax / %>
76

$$$$
>  <smiles_str>
COC(=O)[C@H](CO)NC(=O)c1cn(CCCCCF)c2ccccc12

>  <Emax / %>
41

$$$$
>  <smiles_str>
COC(=O)[C@H](CC(C)C)NC(=O)c1cn(CCCCCF)c2ccccc12

>  <Emax / %>
99

$$$$
>  <smiles_str>
COC(=O)[C@@H](CCCCN)NC(=O)c1cn(CCCCCF)c2ccccc12

>  <Emax / %>
74

$$$$

Value of Emax reported for the molecule `COC(=O)[C@@H](Cc1ccccc1)NC(=O)c1cn(CCCCCF)c2ccccc12` is 57

====

Measured Emax of individual entries
tgt: Cannabinoid receptor 2 (Homo sapiens)
assay_procedure: Agonist activity at human CB2 receptor stably transfected in AtT20 cells assessed as maximal efficacy at 30 uM incubated for 60 mins by FLIPR membrane potential assay relative to control
Format: functional, cell-based
condition_summary: filed as agonist

>  <smiles_str>
COC(=O)[C@H](C)NC(=O)c1cn(CCCCCF)c2ccccc12

>  <Emax>
86%

$$$$

Lab note: next molecule to report on.
Value of Emax reported for the molecule `CC[C@H](C)[C@H](NC(=O)c1cn(CCCCCF)c2ccccc12)C(=O)OC` is 124%

====

tgt: Cannabinoid receptor 2 (Homo sapiens, UniProt P34972)
Sequence (P34972 whole entry): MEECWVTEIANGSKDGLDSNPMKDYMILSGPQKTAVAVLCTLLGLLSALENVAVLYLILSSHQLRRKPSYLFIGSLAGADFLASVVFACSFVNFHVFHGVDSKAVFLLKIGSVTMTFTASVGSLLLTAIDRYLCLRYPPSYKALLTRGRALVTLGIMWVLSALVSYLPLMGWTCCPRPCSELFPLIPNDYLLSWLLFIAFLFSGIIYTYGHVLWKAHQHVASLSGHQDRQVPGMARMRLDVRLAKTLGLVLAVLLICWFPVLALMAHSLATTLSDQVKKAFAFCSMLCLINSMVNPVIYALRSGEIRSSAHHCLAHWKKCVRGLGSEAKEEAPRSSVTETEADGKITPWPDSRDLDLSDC
assay_procedure: Agonist activity at human CB2 receptor stably transfected in AtT20 cells assessed as maximal efficacy at 30 uM incubated for 60 mins by FLIPR membrane potential assay relative to control
Format: functional, cell-based
condition_summary: filed as agonist
Measured Emax of individual entries
Record the value in %, omitting the unit from your answer.

Value of Emax reported for the molecule `COC(=O)[C@@H](CC(C)C)NC(=O)c1cn(CCCCCF)c2ccccc12` is 112

Value of Emax reported for the molecule `COC(=O)[C@H](NC(=O)c1cn(CCCCCF)c2ccccc12)[C@H](C)O` is 81

====

Measured Emax of individual entries
tgt: Cannabinoid receptor 2 (Homo sapiens)
assay_procedure: Agonist activity at human CB2 receptor stably transfected in AtT20 cells assessed as maximal efficacy at 30 uM incubated for 60 mins by FLIPR membrane potential assay relative to control
Assay type: functional, cell-based
condition_summary: filed as agonist

Use the examples below as a reference point.
>  <smiles_str>
COC(=O)[C@H](CCSC)NC(=O)c1cn(CCCCCF)c2ccccc12

>  <Emax>
81%

$$$$
>  <smiles_str>
COC(=O)[C@H](NC(=O)c1cn(CCCCCF)c2ccccc12)C(C)C

>  <Emax>
107%

$$$$
>  <smiles_str>
COC(=O)[C@H](Cc1ccccc1)NC(=O)c1cn(CCCCCF)c2ccccc12

>  <Emax>
99%

$$$$
>  <smiles_str>
COC(=O)[C@@H](C)NC(=O)c1cn(CCCCCF)c2ccccc12

>  <Emax>
72%

$$$$

Entry `COC(=O)[C@@H]1CCCN1C(=O)c1cn(CCCCCF)c2ccccc12` : Emax on Cannabinoid receptor 2 (Homo sapiens) = 86%

Entry `CC[C@@H](C)[C@@H](NC(=O)c1cn(CCCCCF)c2ccccc12)C(=O)OC` : Emax on Cannabinoid receptor 2 (Homo sapiens) = 107%

Entry `COC(=O)[C@H](Cc1ccc(O)cc1)NC(=O)c1cn(CCCCCF)c2ccccc12` : Emax on Cannabinoid receptor 2 (Homo sapiens) = 98%

Entry `COC(=O)[C@H](NC(=O)c1cn(CCCCCF)c2ccccc12)C(C)(C)C` : Emax on Cannabinoid receptor 2 (Homo sapiens) = 96%

Entry `COC(=O)[C@H](CCC(N)=O)NC(=O)c1cn(CCCCCF)c2ccccc12` : Emax on Cannabinoid receptor 2 (Homo sapiens) = 90%

Entry `COC(=O)[C@@H](CCSC)NC(=O)c1cn(CCCCCF)c2ccccc12` : Emax on Cannabinoid receptor 2 (Homo sapiens) = 90%
